Molecular target: human V2 receptor (Homo sapiens, UniProt P30518)
Construct: expressed in transfected cells; host or cells: CHO K1 (ATCC) expressing firefly luciferase under a CRE-responsive promoter
Sequence (P30518 whole entry): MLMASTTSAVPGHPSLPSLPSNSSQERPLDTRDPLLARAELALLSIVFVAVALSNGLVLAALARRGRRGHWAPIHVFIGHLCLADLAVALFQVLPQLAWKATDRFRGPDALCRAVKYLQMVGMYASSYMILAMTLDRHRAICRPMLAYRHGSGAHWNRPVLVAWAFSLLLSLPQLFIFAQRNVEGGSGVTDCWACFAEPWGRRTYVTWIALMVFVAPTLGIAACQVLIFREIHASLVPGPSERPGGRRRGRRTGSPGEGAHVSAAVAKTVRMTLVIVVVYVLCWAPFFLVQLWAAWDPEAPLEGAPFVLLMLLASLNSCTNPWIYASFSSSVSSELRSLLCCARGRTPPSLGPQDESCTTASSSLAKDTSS
Assay: Cellular in vitro assay for determining vasopressin receptor activity, V2 receptor cell line (CHO, CRE-luciferase)
Assay type: cell-based
Conditions: CHO cell line transfected with human V2 receptor; [Arg8]-vasopressin at EC50 concentration, 3 hours; read-out: IC50 hV2
IC50 strictly less than 2000 nM = class 1. Otherwise class 0.

Sample answers from the record:
> print(dat)
                         chemical.structure  group.label
1  NC(=O)CNc1ccncc1-n1cnc(Cn2nc(-c3ccc(Cl)cc3)n(C[C@H](O)C(F)(F)F)c2=O)n1      class 0
2  CC(C)(N)CNc1ccncc1-n1cnc(Cn2nc(-c3ccc(Cl)cc3)n(C[C@H](O)C(F)(F)F)c2=O)n1      class 0
3  O=C(NC1CCCCC1)c1ccccc1-n1cnc(Cn2nc(-c3ccc(Cl)cc3)n(C[C@H](O)C(F)(F)F)c2=O)n1      class 1
4  CC1CCN(C(=O)c2ccccc2-n2cnc(Cn3nc(-c4ccc(Cl)cc4)n(C[C@H](O)C(F)(F)F)c3=O)n2)CC1      class 1
5  NC(=O)C1(C(=O)Nc2ncccc2-n2cnc(Cn3nc(-c4ccc(Cl)cc4)n(C[C@H](O)C(F)(F)F)c3=O)n2)CC1      class 1

hey, is IC50 for O=C(NC1CS(=O)(=O)C1)c1ccccc1-n1cnc(Cn2nc(-c3ccc(Cl)cc3)n(C[C@H](O)C(F)(F)F)c2=O)n1 lower than 2000 nM or not?
class 1

---

Target: human V2 receptor (Homo sapiens)
Construct: expressed in transfected cells; host or cells: CHO K1 (ATCC) expressing firefly luciferase under a CRE-responsive promoter
Test: Cellular in vitro assay for determining vasopressin receptor activity, V2 receptor cell line (CHO, CRE-luciferase)
Assay type: cell-based
Conditions: CHO cell line transfected with human V2 receptor; [Arg8]-vasopressin at EC50 concentration; read-out: IC50 hV2
Threshold 4 µM: IC50 strictly smaller gives 1 (yes), otherwise 0 (no).

Consider the compound NC(=O)[C@H]1CC(F)(F)CN1C(=O)c1ncccc1-n1cnc(Cn2nc(-c3ccc(Cl)cc3)n(C[C@H](O)C(F)(F)F)c2=O)n1 . Is its IC50 strictly less than 4 µM?
1 (yes)

Further, for CC1CN(C(=O)c2ncccc2-n2cnc(Cn3nc(-c4ccc(Cl)cc4)n(C[C@H](O)C(F)(F)F)c3=O)n2)CCO1 (mixture of isomers) ?
0 (no)

Please answer likewise for O=C(NC1CC1)c1ncccc1-n1cnc(Cn2nc(-c3ccc(Cl)cc3)n(C[C@@H](O)C(F)(F)F)c2=O)n1
0 (no)

Same question, CC(C)(N)CNC(=O)c1nc(Cn2nc(-c3ccc(Cl)cc3)n(C[C@H](O)C(F)(F)F)c2=O)nn1-c1cnccc1C(=O)NCC(F)(F)F this time
1 (yes)

What do you have for O=C(c1ncccc1-n1cnc(Cn2nc(-c3ccc(Cl)cc3)n(C[C@H](O)C(F)(F)F)c2=O)n1)N1CCOC(C(F)(F)F)C1 (mixture of isomers) ?
0 (no)

Another compound: O=C(NC1CC(F)(F)C1)c1ncccc1-n1cnc(Cn2nc(-c3ccc(Cl)cc3)n(C[C@@H](O)C(F)(F)F)c2=O)n1
1 (yes)

NC(CNC(=O)c1ncccc1-n1cnc(Cn2nc(-c3ccc(Cl)cc3)n(C[C@H](O)C(F)(F)F)c2=O)n1)C(F)(F)F (mixture of isomers) , same question.
1 (yes)

Repeat with O=C1CN(C(=O)c2ncccc2-n2cnc(Cn3nc(-c4ccc(Cl)cc4)n(C[C@H](O)C(F)(F)F)c3=O)n2)CCN1
0 (no)

Then this compound: O=C(NCC1CC1)c1ncccc1-n1cnc(Cn2nc(-c3ccc(Cl)cc3)n(C[C@H](O)C(F)(F)F)c2=O)n1
1 (yes)

O=C1CN(C(=O)c2nc(Cn3nc(-c4ccc(Cl)cc4)n(C[C@H](O)C(F)(F)F)c3=O)nn2-c2cnccc2C(=O)NCCC(F)(F)F)CCN1 ?
1 (yes)

Again, but for O=C(NC1CC1F)c1cccc(Cl)c1-n1cnc(Cn2nc(-c3ccc(Cl)cc3)n(C[C@@H](O)C(F)(F)F)c2=O)n1 (mixture of isomers)
0 (no)

O=C(NC1CC1(F)F)c1ncccc1-n1cnc(Cn2nc(-c3ccc(Cl)cc3)n(C[C@H](O)C(F)(F)F)c2=O)n1 (mixture of isomers) , same question.
1 (yes)

Hello, the source for this data is patent US11173151B2, in case you need it.
